Where do these numbers come from? They come from paper PMC10397247.

# target_desc: T1, 4H2697-bN
# T1 chain: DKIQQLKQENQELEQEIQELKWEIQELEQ
# test_details: two-hybrid library CCNG1;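 note: natural log of median RNA to DNA barcode read ratio; higher means stronger binding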
measure: interaction score

DKIQQLKQENQELEQEIQELKWEIQELEQ [4H2697-bN]
-0.736
DENQQLEQENQELEQKIQELKWEIQELEQ [4H1193-bN]
-0.604

P = DENQQLEQKNQELEQKIQELEWKIQELKQ [4H1446-bN]
Q = DENQQLEQKIQELKQENQELKWEIQELEQ [4H1369-bN]
R = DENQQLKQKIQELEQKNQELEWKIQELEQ [4H1845-bN]
Task: List from greatest to least interaction score. Order the labels as requested and give them as your answer.
Output: P, Q, R
(P: -0.277, Q: -0.852, R: -1.96)

I = DKIQQLKQEIQELKQKIQELKWENQELEQ [4H2667-bN]
II = DENQQLKQKIQELKQKIQELKWENQELEQ [4H1899-bN]
Task: In terms of reported interaction score, does I or II have the smaller number? Please reply using the label of the selected record.
Output: II
